Below, each entry is listed with its recorded Drug uptake.
Test system: Mus musculus
EXPERIMENT_DESCRIPTION: Biodistribution in thyroid gland of C57BL/6J mouse bearing mouse B16F0 cells at 0.37 to 1.85 MBq, iv after 1 hr by gamma counting method
Format: ADME, organism-based
ASSAY_CONDITIONS: in vivo
Value expressed in % ID/g; do not type the unit.

Study these solved cases before continuing.
| COMPOUND_SMILES | MEASURED_VALUE |
| --- | --- |
| O=C(CN1Cc2ccccc2C1=O)NC1CCN(Cc2ccc([123I])cc2)CC1 | 3.4 |
| O=C(CN1Cc2ccccc2C1=O)N1C[C@H]2CN(Cc3ccc([123I])cc3)C[C@H]2C1 | 1.9 |

### Prompt Short answer please: Drug uptake, Mus musculus, entry O=C(c1ccc2cccnc2n1)N1CCN(Cc2ccc([123I])cc2)CC1
### Response 2.3

### Prompt Short answer please: Drug uptake, Mus musculus, entry O=C(c1ccc2c(n1)NCCC2)N1CCN(Cc2ccc([123I])cc2)CC1
### Response 5.1

###

EXPERIMENT_DESCRIPTION: Ratio of AUC in tumor to skin of C57BL/6J mouse bearing mouse B16F0 cells at 0.37 to 1.85 MBq, iv by gamma counting method
Type: ADME, organism-based
ASSAY_CONDITIONS: in vivo
MEASUREMENT_TYPE: Ratio
Please reply with the number alone, leaving off any unit.

Study these solved cases before continuing.
| COMPOUND_SMILES | Ratio |
| --- | --- |
| O=C(CN1Cc2ccccc2C1=O)NC1CCN(Cc2ccc([123I])cc2)CC1 | 24.4 |
| O=C(c1ccc2c(n1)NCCC2)N1CCN(Cc2ccc([123I])cc2)CC1 | 40.9 |
| O=C(CN1Cc2ccccc2C1=O)N1C[C@H]2CN(Cc3ccc([123I])cc3)C[C@H]2C1 | 23.1 |

Now examine the next entry.
### Prompt Please give the measured Ratio for this compound: O=C(c1ccc2cccnc2n1)N1CCN(Cc2ccc([123I])cc2)CC1
### Response 45.3

###

EXPERIMENT_DESCRIPTION: Retention time of the compound by HPLC method
Assay type: physicochemical
MEASUREMENT_TYPE: Retention_time (min)
Value expressed in min; do not type the unit.

| COMPOUND_SMILES | MEASUREMENT_TYPE | MEASURED_VALUE |
| --- | --- | --- |
| O=C(c1ccc2cccnc2n1)N1CCN(Cc2ccc([123I])cc2)CC1 | Retention_time | 12.2 |
| O=C(CN1Cc2ccccc2C1=O)N1CCCN(Cc2ccc([123I])cc2)CC1 | Retention_time | 14.5 |
| O=C1c2ccccc2CN1CC(=O)N1C[C@@H]2C[C@H]1CN2Cc1ccc([123I])cc1 | Retention_time | 15.9 |
| CCN(CC)CCNC(=O)c1cnc2cc([123I])ccc2n1 | Retention_time | 15.7 |

Now examine the next entry.
### Prompt Please give the measured Retention_time for this compound: O=C(CN1Cc2ccccc2C1=O)N1C[C@H]2CN(Cc3ccc([123I])cc3)C[C@H]2C1
### Response 16.7

###

EXPERIMENT_DESCRIPTION: Retention time of the compound by HPLC method
Assay type: physicochemical
MEASUREMENT_TYPE: Retention_time

Study these solved cases before continuing.
| COMPOUND_SMILES | MEASURED_VALUE |
| --- | --- |
| O=C(CN1Cc2ccccc2C1=O)NC1CCN(Cc2ccc([123I])cc2)CC1 | 14.8 min |
| O=C(c1ccc2c(n1)NCCC2)N1CCN(Cc2ccc([123I])cc2)CC1 | 16.6 min |

### Prompt Please give the measured Retention_time for this compound: O=C(c1cccnc1)N1CCN(Cc2ccc([123I])cc2)CC1
### Response 16 min

### Prompt Please give the measured Retention_time for this compound: O=C(CN1Cc2ccccc2C1=O)N1CCN(Cc2ccc([123I])cc2)CC1
### Response 17.3 min
